# IC50 annotations
biological target: ABHD6 (Homo sapiens, UniProt Q9BV23); construct: Proteomes (human prefrontal cortex or cell membrane fractions); endogenous in cells; human prefrontal cortex; assay: In vitro competitive activity-based protein profiling (human), ABHD6; assay type: biochemical; details: human PC3
Sequence (Q9BV23 whole entry): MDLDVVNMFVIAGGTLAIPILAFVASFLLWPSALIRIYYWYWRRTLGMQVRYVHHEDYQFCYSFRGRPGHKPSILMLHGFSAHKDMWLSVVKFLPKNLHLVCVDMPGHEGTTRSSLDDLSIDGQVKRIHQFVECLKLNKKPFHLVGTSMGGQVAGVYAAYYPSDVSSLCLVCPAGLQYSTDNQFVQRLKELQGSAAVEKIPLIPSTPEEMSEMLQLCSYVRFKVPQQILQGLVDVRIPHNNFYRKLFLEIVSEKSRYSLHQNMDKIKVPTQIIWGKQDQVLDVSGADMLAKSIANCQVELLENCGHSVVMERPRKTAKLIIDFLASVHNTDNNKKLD

Qu. Identify measured IC50 associated with Cc1cc(C(=O)O)sc1-c1cc(C(F)(F)F)ccc1CN1CCN(C(=O)OC(C(F)(F)F)C(F)(F)F)CC1
Ans. 1 to 10 µM

Qu. Tell me IC50 reported for O=C(OC(C(F)(F)F)C(F)(F)F)N1CCN(Cc2cc(Cl)cc(C3(C(=O)O)CCCC3)c2)CC1
Ans. 0.1 to 1 µM

Qu. Hello, please tell me recorded IC50 for this one: O=C(O)Cn1ccc(-c2cc(Cl)ccc2CN2CCN(C(=O)OC(C(F)(F)F)C(F)(F)F)CC2)n1
Ans. 0.1 to 1 µM

Qu. Assign IC50 to the following record: O=C(O)[C@H]1CCCN(c2cc(C(F)(F)F)ccc2CN2CCN(C(=O)OC(C(F)(F)F)C(F)(F)F)CC2)C1
Ans. 0.1 to 1 µM

Qu. Please give the documented IC50 of O=C(O)CN1CCC2(CC1)CN(c1cc(C(F)(F)F)ccc1CN1CCN(C(=O)OC(C(F)(F)F)C(F)(F)F)CC1)C2
Ans. 1 to 10 µM

Qu. Output measured IC50 for this item: CCC(C(=O)O)n1cc(-c2cc(C(F)(F)F)ccc2CN2CCN(C(=O)OC(C(F)(F)F)C(F)(F)F)CC2)cn1 (stereo not shown)
Ans. 0.1 to 1 µM

Then this compound:
Qu. Input O=C(OC(C(F)(F)F)C(F)(F)F)N1CCN(Cc2cccc(Cl)c2C2(C(=O)O)CCCC2)CC1 , output reported IC50.
Ans. 1 to 10 µM

Origin of measurements: patent US10899737B2
